The molecules listed here are annotated with their pKi.
molecular target: Muscarinic acetylcholine receptor M4 (Homo sapiens); assay: Displacement of [3H]N-methylscopolamine from human muscarinic acetylcholine M4 receptor stably expressed in CHO cells by radioligand competition binding based analysis; format: cell-based
Sequence (P08173 whole entry): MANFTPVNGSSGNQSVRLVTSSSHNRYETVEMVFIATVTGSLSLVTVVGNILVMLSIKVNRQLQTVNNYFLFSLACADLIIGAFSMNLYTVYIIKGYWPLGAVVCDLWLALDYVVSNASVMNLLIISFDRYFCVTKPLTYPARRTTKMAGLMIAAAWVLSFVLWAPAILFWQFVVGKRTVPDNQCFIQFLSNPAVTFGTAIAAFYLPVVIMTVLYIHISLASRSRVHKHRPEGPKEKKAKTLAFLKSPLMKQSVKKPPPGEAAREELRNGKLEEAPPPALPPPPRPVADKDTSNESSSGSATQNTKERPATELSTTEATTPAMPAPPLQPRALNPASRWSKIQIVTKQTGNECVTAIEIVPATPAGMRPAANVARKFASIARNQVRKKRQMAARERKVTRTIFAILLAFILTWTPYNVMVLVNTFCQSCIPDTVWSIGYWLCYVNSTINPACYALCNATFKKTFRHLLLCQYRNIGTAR
property_measured: pKi

C[C@@H](NC(=O)/N=C(\N)NCCCc1ncn[nH]1)c1ccccc1    > 5
CCCCCNC(=O)/N=C(\N)NCCCc1sc(N)nc1C    < 5
CCCCCNC(=O)/N=C(\N)NCCCc1nnc(N)s1.O=C(O)C(F)(F)F.O=C(O)C(F)(F)F    < 5
N/C(=N\C(=O)NCc1ccccc1)NCCCc1nnc(N)s1    > 5.5

----------
target: Histamine H1 receptor (Homo sapiens, UniProt P35367)
Sequence (P35367 whole entry): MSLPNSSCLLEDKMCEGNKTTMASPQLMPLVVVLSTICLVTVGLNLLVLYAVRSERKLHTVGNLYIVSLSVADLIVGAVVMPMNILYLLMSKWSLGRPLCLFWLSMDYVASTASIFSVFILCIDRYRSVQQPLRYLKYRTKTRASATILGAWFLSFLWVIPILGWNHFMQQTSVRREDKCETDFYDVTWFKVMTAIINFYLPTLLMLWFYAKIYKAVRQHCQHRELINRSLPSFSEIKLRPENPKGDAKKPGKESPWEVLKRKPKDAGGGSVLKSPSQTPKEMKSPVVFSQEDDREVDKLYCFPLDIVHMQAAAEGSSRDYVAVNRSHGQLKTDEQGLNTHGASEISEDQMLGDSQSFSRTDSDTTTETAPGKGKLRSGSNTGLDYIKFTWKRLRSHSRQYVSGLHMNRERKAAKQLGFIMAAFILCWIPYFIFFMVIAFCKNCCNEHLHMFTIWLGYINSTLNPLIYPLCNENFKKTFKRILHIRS
In plain terms, low Ki, meaning strictly below 4 µM, gives Met, and everything else gives Not met.

N/C(=N\C(=O)NCCCCCCCCNC(=O)/N=C(\N)NCCCc1nnc(N)s1)NCCCc1nnc(N)s1    Met
Cc1nnc(CCCN/C(N)=N/C(=O)NCc2ccccc2)s1    Not met
CCCCCNC(=O)/N=C(\N)Nc1ccc(-c2sc(N)nc2C)cc1.O=C(O)C(F)(F)F.O=C(O)C(F)(F)F    Met
CCCCCNC(=O)/N=C(/N)NCCCc1nnc(C)s1.O=C(O)C(F)(F)F    Not met
CC(NC(=O)/N=C(\N)NCCCc1nnc(N)s1)c1cccc(F)c1 (centres undefined)    Not met
Cc1nc(N)sc1-c1ccc(N/C(N)=N/C(=O)NC2CCCCC2)cc1    Not met
C[C@@H](NC(=O)/N=C(\N)NCCCc1ncn[nH]1)c1ccccc1    Not met
Cc1nc(N)sc1-c1cccc(N/C(N)=N/C(=O)NCCCCCCNC(=O)/N=C(\N)Nc2cccc(-c3sc(N)nc3C)c2)c1    Met
Cc1ccc(CC(C)CNC(=O)/N=C(\N)NCCCc2nnc(N)o2)cc1 (centres undefined)    Met

----------
target: UniProt P07550
Sequence (P07550 whole entry): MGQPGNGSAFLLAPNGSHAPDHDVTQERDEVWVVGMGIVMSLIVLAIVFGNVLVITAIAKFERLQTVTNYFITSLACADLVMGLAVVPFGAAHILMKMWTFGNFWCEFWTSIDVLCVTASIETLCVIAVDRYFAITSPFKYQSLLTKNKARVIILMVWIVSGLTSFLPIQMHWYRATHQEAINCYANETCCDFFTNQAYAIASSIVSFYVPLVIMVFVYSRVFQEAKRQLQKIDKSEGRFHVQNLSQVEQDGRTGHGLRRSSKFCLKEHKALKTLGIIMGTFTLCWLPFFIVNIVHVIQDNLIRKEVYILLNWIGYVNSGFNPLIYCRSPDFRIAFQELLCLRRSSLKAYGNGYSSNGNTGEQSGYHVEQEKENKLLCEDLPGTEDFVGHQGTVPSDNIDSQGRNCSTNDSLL
compounds and their reported Kd
property_measured: Kd (nM)

C[C@@H](NC(=O)/N=C(\N)NCCCc1ncn[nH]1)c1ccccc1    0.07
CCCCCNC(=O)/N=C(\N)NCCCc1nnc(N)s1.O=C(O)C(F)(F)F.O=C(O)C(F)(F)F    0.07

----------
target: D(3) dopamine receptor (Homo sapiens)
Sequence (P35462 whole entry): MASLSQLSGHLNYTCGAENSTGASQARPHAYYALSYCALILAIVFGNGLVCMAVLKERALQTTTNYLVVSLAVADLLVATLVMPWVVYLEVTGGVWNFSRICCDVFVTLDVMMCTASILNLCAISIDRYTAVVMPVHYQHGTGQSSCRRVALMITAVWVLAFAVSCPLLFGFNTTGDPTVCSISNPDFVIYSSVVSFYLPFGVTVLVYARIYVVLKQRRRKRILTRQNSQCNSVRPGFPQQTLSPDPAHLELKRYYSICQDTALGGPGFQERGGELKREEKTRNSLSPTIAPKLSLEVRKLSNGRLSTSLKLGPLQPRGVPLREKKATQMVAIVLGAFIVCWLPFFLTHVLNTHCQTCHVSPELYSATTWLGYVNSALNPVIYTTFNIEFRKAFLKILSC
Mark t for Ki under 0.3 µM, f if at or over.

CC(CNC(=O)/N=C(\N)NCCCc1nnc(N)s1)C1CCCCC1 (stereo not given)    t
Cc1ccc(CC(C)CNC(=O)/N=C(\N)NCCCc2nnc(N)s2)cc1.O=C(O)C(F)(F)F.O=C(O)C(F)(F)F (stereo not given)    f
N/C(=N\C(=O)NCc1ccccc1)NCCCc1cnc(N)s1    t
Cc1ccc(CC(C)CNC(=O)/N=C(\N)NCCCc2cnc(N)s2)cc1 (stereo not given)    t
CC(CCCc1ccccc1)CNC(=O)/N=C(\N)NCCCc1nnc(N)s1 (stereo not given)    f
CCCCCCNC(=O)/N=C(\N)NCCCc1nnc(N)s1    f
N/C(=N\C(=O)NCc1ccccc1)NCCCc1nnc(N)s1    f
C[C@@H](NC(=O)/N=C(\N)NCCCc1nnc(N)s1)c1ccccc1    f
CC(NC(=O)/N=C(\N)NCCCc1nnc(N)s1)c1cccc(F)c1 (stereo not given)    f
C[C@@H](NC(=O)/N=C(\N)NCCCc1ncn[nH]1)c1ccccc1    f
